TEST_TARGET: UniProt Q8N6T7
Sequence (Q8N6T7 whole entry, the tested form may be a part): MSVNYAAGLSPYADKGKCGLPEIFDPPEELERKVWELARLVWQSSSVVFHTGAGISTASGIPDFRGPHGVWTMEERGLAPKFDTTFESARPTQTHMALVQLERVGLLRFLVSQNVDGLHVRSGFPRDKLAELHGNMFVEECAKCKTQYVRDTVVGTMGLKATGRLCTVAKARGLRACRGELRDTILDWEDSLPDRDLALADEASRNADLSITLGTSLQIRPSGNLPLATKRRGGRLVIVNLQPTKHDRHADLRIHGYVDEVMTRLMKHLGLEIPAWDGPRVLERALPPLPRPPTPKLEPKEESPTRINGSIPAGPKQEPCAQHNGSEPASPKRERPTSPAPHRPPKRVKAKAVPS
EXPERIMENT_DESCRIPTION: Substrate activity at human N-terminal His-tagged SIRT6 (1 to 355 residues) expressed in Escherichia coli at 50 uM measured after 2 hrs in presence of NAD+ and trypsin by fluorescence assay
*1 amine or outer side, *2 acyl side, *3 side chain or, on linkers, in order; H or OH if unused. Where a SMILES comes first, the peptide text is derived from it. The star is where a group is joined. AMC = Cc1cc(=O)oc2cc(N*)ccc12; Suc = O=C(CCC(=O)[*:2])[*:1]; Decanoyl = CCCCCCCCCC(=O)*
Values of Activity strictly less than 1 RFU map to TRUE, and values of at least 1 RFU map to FALSE.

Past entries and their recorded results:
>>> class_label("CC(=O)NCCCC[C@H](NC(=O)[C@H](CCCNC(=N)N)NC(=O)[C@H](CO)NC(=O)[C@H](CC(N)=O)NC(C)=O)C(=O)Nc1ccc2c(C)cc(=O)oc2c1 (Ac-NSRK(Ac)-{AMC})")
"TRUE"
>>> class_label("CC(=O)NCCCC[C@H](NC(=O)[C@H](CC(C)C)NC(=O)[C@H](CCCCN)NC(=O)[C@H](Cc1ccc(O)cc1)NC(C)=O)C(=O)Nc1ccc2c(C)cc(=O)oc2c1 (Ac-YKLK(Ac)-{AMC})")
"TRUE"
>>> class_label("CCCCCCCCCC(=O)NCCCC[C@H](NC(=O)[C@@H](NC(=O)[C@H](CO)NC(=O)[C@H](CO)NC(C)=O)[C@@H](C)CC)C(=O)Nc1ccc2c(C)cc(=O)oc2c1 (Ac-SSIK(Decanoyl)-{AMC})")
"TRUE"
>>> class_label("CCCCCCCCCC(=O)NCCCC[C@H](NC(=O)[C@H](CCC(N)=O)NC(=O)[C@@H](NC(=O)[C@H](CCCCN)NC(C)=O)C(C)C)C(=O)Nc1ccc2c(C)cc(=O)oc2c1 (Ac-KVQK(Decanoyl)-{AMC})")
"FALSE"
>>> class_label("CCCCCCCCCC(=O)NCCCC[C@H](NC(=O)[C@H](CC(=O)O)NC(=O)[C@@H](NC(=O)[C@H](CCC(=O)O)NC(C)=O)[C@@H](C)O)C(=O)Nc1ccc2c(C)cc(=O)oc2c1 (Ac-ETDK(Decanoyl)-{AMC})")
"TRUE"

Could you now consider this next compound?
-- ask hey, is Activity for CC[C@H](C)[C@H](NC(C)=O)C(=O)N[C@@H](CCCNC(=N)N)C(=O)N[C@H](C(=O)N[C@@H](CCCCNC(=O)CCC(=O)O)C(=O)Nc1ccc2c(C)cc(=O)oc2c1)[C@@H](C)CC (Ac-IRIK(Suc)-{AMC}) lower than 1 RFU or not?
-- reply FALSE

====

TEST_TARGET: NAD-dependent protein deacetylase sirtuin-7 (Homo sapiens)
EXPERIMENT_DESCRIPTION: Substrate activity at human N-terminal His-tagged SIRT7 (68 to 354 residues) expressed in Escherichia coli at 50 uM measured after 2 hrs in presence of NAD+ and trypsin by fluorescence assay
*1 amine or outer side, *2 acyl side, *3 side chain or, on linkers, in order; H or OH if unused. Where a SMILES comes first, the peptide text is derived from it. The star is where a group is joined. AMC = Cc1cc(=O)oc2cc(N*)ccc12; Suc = O=C(CCC(=O)[*:2])[*:1]; Decanoyl = CCCCCCCCCC(=O)*
Please use yes whenever Activity is not below 1 RFU, and no whenever it is.

>>> class_label("CCCCCCCCCC(=O)NCCCC[C@H](NC(=O)[C@@H](NC(=O)[C@H](CO)NC(=O)[C@H](CO)NC(C)=O)[C@@H](C)CC)C(=O)Nc1ccc2c(C)cc(=O)oc2c1 (Ac-SSIK(Decanoyl)-{AMC})")
"no"
>>> class_label("CCCCCCCCCC(=O)NCCCC[C@H](NC(=O)[C@H](CCC(N)=O)NC(=O)[C@@H](NC(=O)[C@H](CCCCN)NC(C)=O)C(C)C)C(=O)Nc1ccc2c(C)cc(=O)oc2c1 (Ac-KVQK(Decanoyl)-{AMC})")
"yes"
>>> class_label("CC(=O)N[C@@H](CC(C)C)C(=O)NCC(=O)N[C@@H](CO)C(=O)N[C@@H](CCCCNC(=O)CCC(=O)O)C(=O)Nc1ccc2c(C)cc(=O)oc2c1 (Ac-LGSK(Suc)-{AMC})")
"yes"
>>> class_label("CC(=O)NCCCC[C@H](NC(=O)[C@H](CC(C)C)NC(=O)[C@H](CCCCN)NC(=O)[C@H](Cc1ccc(O)cc1)NC(C)=O)C(=O)Nc1ccc2c(C)cc(=O)oc2c1 (Ac-YKLK(Ac)-{AMC})")
"no"
>>> class_label("CC[C@H](C)[C@H](NC(=O)[C@H](CC(C)C)NC(=O)[C@H](CCCNC(=N)N)NC(C)=O)C(=O)N[C@@H](CCCCNC(C)=O)C(=O)Nc1ccc2c(C)cc(=O)oc2c1 (Ac-RLIK(Ac)-{AMC})")
"no"
>>> class_label("CC(=O)NCCCC[C@H](NC(=O)[C@H](CO)NC(=O)[C@H](Cc1ccccc1)NC(=O)[C@H](CC(=O)O)NC(C)=O)C(=O)Nc1ccc2c(C)cc(=O)oc2c1 (Ac-DFSK(Ac)-{AMC})")
"no"

-- ask Exam item: decide whether the reported Activity for CCCCCCCCCC(=O)NCCCC[C@H](NC(=O)[C@H](CCCNC(=N)N)NC(=O)[C@H](CC(C)C)NC(=O)[C@H](CC(=O)O)NC(C)=O)C(=O)Nc1ccc2c(C)cc(=O)oc2c1 (Ac-DLRK(Decanoyl)-{AMC}) is at least 1 RFU.
-- reply yes

-- ask Decide: Activity of CC(=O)N[C@@H](CO)C(=O)N[C@@H](CC(C)C)C(=O)NCC(=O)N[C@@H](CCCCNC(=O)CCC(=O)O)C(=O)Nc1ccc2c(C)cc(=O)oc2c1 (Ac-SLGK(Suc)-{AMC}) >= 1 RFU?
-- reply yes

-- ask State whether the measured Activity reaches 1 RFU, counting equality as reaching it, for CC(=O)NCCCC[C@H](NC(=O)[C@H](CCCNC(=N)N)NC(=O)[C@H](C)NC(=O)[C@@H](NC(C)=O)[C@@H](C)O)C(=O)Nc1ccc2c(C)cc(=O)oc2c1 (Ac-TARK(Ac)-{AMC})
-- reply no

-- ask Reported Activity at or above 1 RFU? CC[C@H](C)[C@H](NC(C)=O)C(=O)N[C@@H](CCCNC(=N)N)C(=O)N[C@H](C(=O)N[C@@H](CCCCNC(=O)CCC(=O)O)C(=O)Nc1ccc2c(C)cc(=O)oc2c1)[C@@H](C)CC (Ac-IRIK(Suc)-{AMC})
-- reply yes
